The values you see were collected from paper PMC8117003.

experimentalProtocol: Pharmacokinetics and absolute bioavailability of pure marker compounds after single oral and i.v. dose
Type: in vivo, male Wistar rats
experimentalConditions: male, Wistar, rat, in vivo, po, 15 mg/kg, MRT (mean residence time)
observationType: MRT (h)
Could you give me the number in h? Just the number is fine.

Return reported MRT; argument: C[C@@H]1CC[C@@]2(OC1)O[C@H]1C[C@H]3[C@@H]4CC=C5C[C@@H](O)CC[C@]5(C)[C@H]4CC[C@]3(C)[C@H]1[C@@H]2C [Diosgenin]
9.94

---

experimentalProtocol: Pharmacokinetics and absolute bioavailability of pure marker compounds after single oral and i.v. dose
Format: in vivo, male Wistar rats
experimentalConditions: male, Wistar, rat, in vivo, po, 15 mg/kg
observationType: Tmax (h)
Could you give me the number in h? Just the number is fine.

Return reported Tmax; argument: C[C@@H]1CC[C@@]2(OC1)O[C@H]1C[C@H]3[C@@H]4CC=C5C[C@@H](O)CC[C@]5(C)[C@H]4CC[C@]3(C)[C@H]1[C@@H]2C
1

---

experimentalProtocol: Pharmacokinetics and absolute bioavailability of pure marker compounds after single oral and i.v. dose
Assay type: in vivo, male Wistar rats
experimentalConditions: male, Wistar, rat, in vivo, po, 15 mg/kg, AUC 0-∞
observationType: AUC(0-inf) (ng·h/mL)
Could you give me the number in ng·h/mL? Just the number is fine.

Return reported AUC(0-inf); argument: C[C@@H]1CC[C@@]2(OC1)O[C@H]1C[C@H]3[C@@H]4CC=C5C[C@@H](O)CC[C@]5(C)[C@H]4CC[C@]3(C)[C@H]1[C@@H]2C
4950

---

experimentalProtocol: Pharmacokinetics and absolute bioavailability of pure marker compounds after single oral and i.v. dose
Type: in vivo, male Wistar rats
experimentalConditions: male, Wistar, rat, plasma, po, 15 mg/kg, pure marker, oral single dose 15 mg/kg, rat plasma; read-out: Kel (elimination rate constant) (converted)
observationType: k el (s⁻¹)
Could you give me the number in s⁻¹? Just the number is fine.

Return reported k el; argument: C[C@@H]1CC[C@@]2(OC1)O[C@H]1C[C@H]3[C@@H]4CC=C5C[C@@H](O)CC[C@]5(C)[C@H]4CC[C@]3(C)[C@H]1[C@@H]2C
2.22e-05

---

experimentalProtocol: Pharmacokinetics and absolute bioavailability of pure marker compounds after single oral and i.v. dose
Format: in vivo, male Wistar rats
experimentalConditions: male, Wistar, rat, in vivo, po, 15 mg/kg, t 1/2 (plasma half-life)
observationType: half-life (h)
Could you give me the number in h? Just the number is fine.

Return reported half-life; argument: C[C@@H]1CC[C@@]2(OC1)O[C@H]1C[C@H]3[C@@H]4CC=C5C[C@@H](O)CC[C@]5(C)[C@H]4CC[C@]3(C)[C@H]1[C@@H]2C [Diosgenin]
7.93
